Target: bovine multidrug resistance protein 1 (bMRP1) (Bos taurus, UniProt Q8HXQ5, DEL868-879)
Construct: purified WT bMRP1 with S6 peptide replacing residues 868–879 and A1 peptide after V1530, Cy3/LD655-labeled
Sequence (Q8HXQ5 1-867, stated change not applied): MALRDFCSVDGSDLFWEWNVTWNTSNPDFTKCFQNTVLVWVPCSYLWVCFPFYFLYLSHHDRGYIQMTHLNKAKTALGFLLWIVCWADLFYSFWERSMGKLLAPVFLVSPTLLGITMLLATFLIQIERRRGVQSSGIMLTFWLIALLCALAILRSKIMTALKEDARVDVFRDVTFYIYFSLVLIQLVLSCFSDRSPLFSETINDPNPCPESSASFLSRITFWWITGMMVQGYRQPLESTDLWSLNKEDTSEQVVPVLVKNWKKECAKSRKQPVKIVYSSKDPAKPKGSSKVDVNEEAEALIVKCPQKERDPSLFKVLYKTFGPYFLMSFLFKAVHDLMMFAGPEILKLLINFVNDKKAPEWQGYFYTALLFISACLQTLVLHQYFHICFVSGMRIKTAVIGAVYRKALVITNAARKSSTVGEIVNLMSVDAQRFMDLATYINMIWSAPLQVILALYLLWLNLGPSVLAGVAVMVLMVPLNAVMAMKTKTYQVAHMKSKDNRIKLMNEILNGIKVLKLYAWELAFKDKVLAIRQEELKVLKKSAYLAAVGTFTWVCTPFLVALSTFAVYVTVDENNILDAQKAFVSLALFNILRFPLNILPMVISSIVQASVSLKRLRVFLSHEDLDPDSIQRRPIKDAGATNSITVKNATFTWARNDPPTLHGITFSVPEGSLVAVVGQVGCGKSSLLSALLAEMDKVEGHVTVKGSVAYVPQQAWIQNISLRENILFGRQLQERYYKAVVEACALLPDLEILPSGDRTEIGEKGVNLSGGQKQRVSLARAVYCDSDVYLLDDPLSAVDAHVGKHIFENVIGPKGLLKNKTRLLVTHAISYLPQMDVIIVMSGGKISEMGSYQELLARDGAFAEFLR
Sequence (Q8HXQ5 880-1530, stated change not applied): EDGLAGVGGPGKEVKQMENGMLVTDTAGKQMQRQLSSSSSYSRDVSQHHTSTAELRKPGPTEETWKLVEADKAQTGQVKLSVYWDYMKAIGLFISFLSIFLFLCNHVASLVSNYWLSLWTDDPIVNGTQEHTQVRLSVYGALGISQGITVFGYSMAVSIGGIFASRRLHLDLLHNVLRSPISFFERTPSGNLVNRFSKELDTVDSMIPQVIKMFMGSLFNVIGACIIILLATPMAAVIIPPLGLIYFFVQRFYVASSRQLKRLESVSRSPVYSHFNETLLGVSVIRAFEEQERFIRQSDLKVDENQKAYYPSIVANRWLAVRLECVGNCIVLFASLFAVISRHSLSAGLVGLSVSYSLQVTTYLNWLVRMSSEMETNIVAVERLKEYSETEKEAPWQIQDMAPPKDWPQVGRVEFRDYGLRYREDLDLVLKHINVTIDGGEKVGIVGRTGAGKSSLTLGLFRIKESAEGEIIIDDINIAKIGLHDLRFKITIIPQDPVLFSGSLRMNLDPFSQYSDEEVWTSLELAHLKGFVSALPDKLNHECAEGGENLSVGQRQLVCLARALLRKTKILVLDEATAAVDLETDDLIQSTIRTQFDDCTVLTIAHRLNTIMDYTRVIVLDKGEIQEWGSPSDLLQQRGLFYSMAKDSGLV
Assay: smFRET dose response of IF1 state occupancy (purified protein); also stimulates ATPase activity
MEASURE_NAME: pEC50
Reminder that pEC50 means the negative base-10 logarithm of the concentration expressed in mol/L.

What measured pEC50 goes with CCCCC/C=C\C\C=C/C=C/C=C/[C@@H](SC[C@H](NC(=O)CC[C@H](N)C(=O)O)C(=O)NCC(=O)O)[C@@H](O)CCCC(=O)O [Leukotriene C4] ?
6.49
